Molecular target: cToxR_1-134 (Vibrio cholerae, UniProt P15795 1-134)
Sequence (P15795 1-134): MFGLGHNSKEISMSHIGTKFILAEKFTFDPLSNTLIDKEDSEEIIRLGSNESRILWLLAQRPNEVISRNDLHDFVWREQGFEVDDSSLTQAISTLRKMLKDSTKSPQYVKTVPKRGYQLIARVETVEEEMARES
Experiment: NMR CSP titration; mean as printed; T111 14.21 ± 0.31, L99 14.78 ± 6.62
Conditions: protein: recombinant; tags: N-terminal His6; chain copies: 2; none in NMR; blunt

binder | Kd [µM]
ompT (dsDNA) DNA 1: TTTTATGGTATTTGA DNA 2: TCAAATACCATAAAA | 14.5

These measurements were taken from paper PMC8517210.
